tested on: A549 NSCLC; assay: NCI tumour cell line growth inhibition, 48 h; in the data active = GI50 below about 0.43 µM; inactive = the rest
Returns: one label drawn from true for active, false for inactive

# fetch the recorded call for CCN(CC)CCCC(C)Nc1cnc(C(=O)Nc2cccc3ccc(OC)nc23)cn1 (stereo unspecified) here
false

# fetch the recorded call for Cc1ccc(NC(=O)c2sc3nc(C)c(C(O)c4ccccc4)cc3c2N)cc1 (stereo unspecified) here
false

# fetch the recorded call for Cc1cc(O)c(C(C)(C)C)cc1Sc1cc(C(C)(C)C)c(O)cc1C here
false

# fetch the recorded call for COc1ccc(/C=C\c2cc(OC)c(OC)c(OC)c2)cc1OC(=O)NCCN(C)C here
true

# fetch the recorded call for CC[CH2][Sn]([Cl])([Cl])[CH2]CC.Oc1ccccc1C=NCCN=Cc1ccccc1O here
false

# fetch the recorded call for C=C[C@H]1C[C@@H]2C[C@@H]3[C@H]4C/C=C\C(=O)NCCCC5NC(=O)C(=C(O)/C=C/[C@@H]4CC(=O)[C@H]3[C@@H]2[C@H]1C)C5=O (stereo partly specified) here
false

# fetch the recorded call for COC(=O)[C@H](Cc1c[nH]c2ccccc12)NC(=O)[C@@H](OC)[C@@H]1Cc2cc3cc(OC4CC(OC5CC(O)C(O)C(C)O5)C(O)C(C)O4)c(C)c(O)c3c(O)c2C(=O)[C@H]1OC1CC(OC2CC(OC3CC(C)(O)C(O)C(C)O3)C(O)C(C)O2)C(O)C(C)O1 (stereo partly specified) here
true

# fetch the recorded call for COC(=O)C12C3C4C1C1C2C3C41NC(=O)c1csc([C@@H](C[C@H](C(C)C)N(C)C(=O)[C@@H](NC(=O)[C@H]2CCCCN2C)C2CC2)OC(C)=O)n1 (stereo partly specified) here
true

# fetch the recorded call for COC(=O)c1c(C)[nH]c(/C=C2\N=C(c3ccc[nH]3)C=C2OC)c1C here
true

# fetch the recorded call for O=S1(=O)N(CCNc2nccc(-c3c(-c4cccc(O)c4)nc4sccn34)n2)CCN1Cc1ccccc1 here
false

# fetch the recorded call for COc1ccc(-n2cc(-c3cc(OC)c(OC)c(OC)c3)[nH]c2=O)cc1Cl here
false

---

Hi there, I'd appreciate the recorded TGI for every entry that follows.
system: MDA-MB-231 breast; assay: NCI tumour cell line growth inhibition, 48 h
Provide only the numeric value, understood in µM.

Value of measured TGI for the entry CC(C)=CC(=O)C[C@H]1C(=O)O[C@@H]2C[C@H]3C(C)=CC(=O)[C@@H](O)[C@]3(C)[C@H]3[C@@]4(O)OC[C@]32[C@@H]1[C@@H](C)[C@H]4O : 0.381

Value of measured TGI for the entry CN(C)/C=N/S(=O)(=O)c1nn2c(C=O)c(-c3ccc(Cl)cc3)nc2s1 : 7.77

Value of measured TGI for the entry COC(=O)[C@H](Cc1c[nH]c2ccccc12)NC(=O)[C@@H](OC)[C@@H]1Cc2cc3cc(OC4CC(OC5CC(O)C(O)C(C)O5)C(O)C(C)O4)c(C)c(O)c3c(O)c2C(=O)[C@H]1OC1CC(OC2CC(OC3CC(C)(O)C(O)C(C)O3)C(O)C(C)O2)C(O)C(C)O1 (some centres not stated) : 0.603

---

Hi there, I'd appreciate the recorded TGI for every entry that follows.
tested on: PC-3 prostate; test: NCI tumour cell line growth inhibition, 48 h

Value of measured TGI for the entry COc1cc(NS(=O)(=O)c2ccc(-c3cnc(C4CC4)o3)cc2)ccc1F : 17 µM

Value of measured TGI for the entry CC[C@H](C)[C@H]1O[C@]2(C=C[C@@H]1C)C[C@@H]1C[C@@H](C/C=C(\C)[C@@H](O[C@H]3C[C@H](OC)[C@@H](O[C@H]4C[C@H](OC)[C@@H](NC)[C@H](C)O4)[C@H](C)O3)[C@@H](C)/C=C/C=C3\CO[C@@H]4[C@H](O)C(C)=C[C@@H](C(=O)O1)[C@]34O)O2 : 11.7 µM

Value of measured TGI for the entry COc1ccc(N2C(=O)c3cc(C)cnc3S2(=O)=O)cc1 : > 100 µM

Value of measured TGI for the entry CCOC(=O)C1(C(=O)OCC)C[C@H](C)[C@](C)(O)C1 : > 100 µM

Value of measured TGI for the entry N#Cc1cccc(NC(=O)c2cc(-c3ccc(F)cc3F)ccc2O)c1 : 9.88 µM

Value of measured TGI for the entry Cc1nc(-c2ccccc2)c(-c2ccccc2)s1 : 47.1 µM

Value of measured TGI for the entry O=C1O/C(=C(/Cl)c2cccc3ccccc23)c2ccccc21 : > 100 µM

Value of measured TGI for the entry COc1ccc(N2C(=O)C3ON(C(C(N)=O)c4ccccc4)C(c4cc5ccccc5c5ccccc45)C3C2=O)cc1 (stereo not drawn) : > 50 µM
